test system: SF-295 CNS; experiment: NCI-60 one-dose screen, 48 h (100 = growth as untreated, 0 = no growth, -100 = all killed); conditions: 10 µM unless noted
This is part of a sample that, as a whole, favours compounds with a hit. Of some 83,000 tested, about 20% had one in any assay.
Recorded growth for the following molecules
measure_name: growth (%)

{"molecule": "OCCN1CCCCCCC1", "unit_text": "%", "experimental_value": 95.9}
{"molecule": "CCCCOC(=O)/C=C\\C(=O)NC(N)=O", "unit_text": "%", "experimental_value": 103}
{"molecule": "Cc1ccc(S(=O)(=O)c2ccccc2)cc1", "unit_text": "%", "experimental_value": 2.7}
{"molecule": "c1ccc2c(c1)OC1OC2Oc2ccccc21", "unit_text": "%", "experimental_value": 115}
{"molecule": "O=c1n(CC2CO2)c(=O)n(CC2CO2)c(=O)n1CC1CO1 (configuration not stated)", "unit_text": "%", "experimental_value": 13.9}
{"molecule": "Nc1ccc2c(O)cc(S(=O)(=O)O)cc2c1", "unit_text": "%", "experimental_value": 99.5}
{"molecule": "c1ccc(-c2nc3ccccc3s2)cc1", "unit_text": "%", "experimental_value": 97.9}

====

test system: HCT-15 colon; experiment: NCI-60 one-dose screen, 48 h (100 = growth as untreated, 0 = no growth, -100 = all killed); conditions: 10 µM unless noted
About 83,000 compounds went through this panel and 20% of them were active in at least one assay; those are over-represented in the sample as a whole. The source made the active and inactive calls. Rule for the calls: active = growth percent below 10; inactive = the rest.
measure_name: growth

{"compound": "CC1CCC(C(C)C)C(NNC(N)=O)C1 (centres undefined)", "tested_on": "HCT-15 colon", "measure_name": "growth", "experimental_value": "112% (inactive)"}
{"compound": "O=C1OC(c2ccccc2)=N/C1=C\\c1ccccc1", "tested_on": "HCT-15 colon", "measure_name": "growth", "experimental_value": "105% (inactive)"}
{"compound": "Cc1cc(-c2ccc(N=Nc3ccc4c(S(=O)(=O)O)cc(S(=O)(=O)O)c(N)c4c3O)c(C)c2)ccc1N=Nc1ccc2c(S(=O)(=O)O)cc(S(=O)(=O)O)c(N)c2c1O", "tested_on": "HCT-15 colon", "measure_name": "growth", "experimental_value": "96.6% (inactive)"}
{"compound": "COc1ccc2cc1Oc1ccc(cc1)C[C@H]1c3cc(c(OC)cc3CCN1C)Oc1c(OC)c(OC)cc3c1[C@H](C2)N(C)CC3", "tested_on": "HCT-15 colon", "measure_name": "growth", "experimental_value": "3.41% (active)"}
{"compound": "CN(C)CC1CCCCCC(CN(C)C)C1=O (centres undefined)", "tested_on": "HCT-15 colon", "measure_name": "growth", "experimental_value": "7.44% (active)"}
{"compound": "O=c1n(CC2CO2)c(=O)n(CC2CO2)c(=O)n1CC1CO1 (centres undefined)", "tested_on": "HCT-15 colon", "measure_name": "growth", "experimental_value": "75.9% (inactive)"}
{"compound": "Cc1ccc(S(=O)(=O)c2ccccc2)cc1", "tested_on": "HCT-15 colon", "measure_name": "growth", "experimental_value": "30.5% (inactive)"}
{"compound": "CC(C)(O)C(=O)O", "tested_on": "HCT-15 colon", "measure_name": "growth", "experimental_value": "105% (inactive)"}
{"compound": "CC(=O)OC(C)C(=O)NCC(C)O (centres undefined)", "tested_on": "HCT-15 colon", "measure_name": "growth", "experimental_value": "100% (inactive)"}
{"compound": "Fc1ccc([I+]c2ccc(F)cc2)cc1", "tested_on": "HCT-15 colon", "measure_name": "growth", "experimental_value": "94.3% (inactive)"}
{"compound": "COc1ccc(Nc2ccc3ccccc3c2)cc1", "tested_on": "HCT-15 colon", "measure_name": "growth", "experimental_value": "78.2% (inactive)"}
{"compound": "CCCCNc1ccc(Nc2ccccc2)cc1", "tested_on": "HCT-15 colon", "measure_name": "growth", "experimental_value": "94.6% (inactive)"}
{"compound": "c1ccc2c(c1)OC1OC2Oc2ccccc21", "tested_on": "HCT-15 colon", "measure_name": "growth", "experimental_value": "98.1% (inactive)"}
{"compound": "Cn1cnc([N+](=O)[O-])c1Sc1ncn[nH]1", "tested_on": "HCT-15 colon", "measure_name": "growth", "experimental_value": "107% (inactive)"}
{"compound": "OC1COC(OCc2ccccc2)C(O)C1O (centres undefined)", "tested_on": "HCT-15 colon", "measure_name": "growth", "experimental_value": "98% (inactive)"}
{"compound": "CC1=C/C(O)CC(=O)Cc2nc(co2)C(=O)N2CCC=C2C(=O)OC(C(C)C)C(C)/C=C\\C(=O)NC/C=C\\1 (centres undefined)", "tested_on": "HCT-15 colon", "measure_name": "growth", "experimental_value": "90.1% (inactive)"}
{"compound": "CC(C)C(C)(C)c1ccc(O)cc1", "tested_on": "HCT-15 colon", "measure_name": "growth", "experimental_value": "105% (inactive)"}
{"compound": "CCCCCCCCCCCCCCCc1ccc(N)c(OC2OC(CO)C(O)C(O)C2O)c1 (centres undefined)", "tested_on": "HCT-15 colon", "measure_name": "growth", "experimental_value": "98.4% (inactive)"}
{"compound": "c1ccc(-c2nc3ccccc3s2)cc1", "tested_on": "HCT-15 colon", "measure_name": "growth", "experimental_value": "92.2% (inactive)"}
{"compound": "COc1ccc(C(=O)CC(c2ccccc2)C(C#N)c2ccccc2)cc1 (centres undefined)", "tested_on": "HCT-15 colon", "measure_name": "growth", "experimental_value": "96.5% (inactive)"}
{"compound": "CC(C)NC(=O)N/C=C(\\C#N)C(N)=O", "tested_on": "HCT-15 colon", "measure_name": "growth", "experimental_value": "101% (inactive)"}
{"compound": "Brc1ccc(SSc2ccc(Br)cc2)cc1", "tested_on": "HCT-15 colon", "measure_name": "growth", "experimental_value": "77.3% (inactive)"}
{"compound": "Nc1cc(N)c(N)cc1N", "tested_on": "HCT-15 colon", "measure_name": "growth", "experimental_value": "54.2% (inactive)"}
{"compound": "CCCCCCCCCCNC(=O)CI", "tested_on": "HCT-15 colon", "measure_name": "growth", "experimental_value": "14% (inactive)"}
{"compound": "CC(=O)NCC(=O)c1ccc([N+](=O)[O-])cc1", "tested_on": "HCT-15 colon", "measure_name": "growth", "experimental_value": "111% (inactive)"}
{"compound": "NN1CCOC(c2ccccc2)C1 (centres undefined)", "tested_on": "HCT-15 colon", "measure_name": "growth", "experimental_value": "101% (inactive)"}
{"compound": "N#CC(C#N)N=Nc1cc(Cl)ccc1Cl", "tested_on": "HCT-15 colon", "measure_name": "growth", "experimental_value": "101% (inactive)"}
{"compound": "CCOC(=O)c1c(C)cc(=O)oc1C", "tested_on": "HCT-15 colon", "measure_name": "growth", "experimental_value": "102% (inactive)"}
{"compound": "Oc1ccc(Cc2ccccc2Cl)c(O)c1", "tested_on": "HCT-15 colon", "measure_name": "growth", "experimental_value": "97.2% (inactive)"}
{"compound": "CCc1cc(C)cc(O)c1", "tested_on": "HCT-15 colon", "measure_name": "growth", "experimental_value": "111% (inactive)"}
{"compound": "Cl", "tested_on": "HCT-15 colon", "measure_name": "growth", "experimental_value": "102% (inactive)"}
{"compound": "ClCCOCCOc1ccc(C2CCCCC2)cc1", "tested_on": "HCT-15 colon", "measure_name": "growth", "experimental_value": "105% (inactive)"}
{"compound": "NC(=O)NCCCC(N)C(=O)O (centres undefined)", "tested_on": "HCT-15 colon", "measure_name": "growth", "experimental_value": "109% (inactive)"}
{"compound": "O=C(/C=C/c1ccccc1)c1ccccc1", "tested_on": "HCT-15 colon", "measure_name": "growth", "experimental_value": "86.3% (inactive)"}
